The following molecules are listed with their measured growth inhibition values.
Tested on: SUDIPGVI (diffuse intrinsic pontine glioma line)
assayName: growth inhibition (% activity, log2 RLU normalised to DMSO / staurosporine); higher = more growth inhibition
condition: 33 µM
measurementName: growth inhibition (%)

- O=P1(N(CCCl)CCCl)NCCCO1 (stereo not given): -1.97
- COc1ccc(C(CN(C)C)C2(O)CCCCC2)cc1 (stereo not given): -1.13
- O=C(O[C@H]1C[C@H]2CC[C@@H](C1)[N+]21CCCC1)C(O)(c1ccccc1)c1ccccc1: -6.45
- CN1C(=O)COc2c(C(=O)NC3CN4CCC3CC4)cc(Cl)cc21 (stereo not given): 3.53
- CCC1=C[C@H]2CN3CCc4c([nH]c5ccccc45)[C@](C(=O)OC)(C2)[C@H]13: -1.41
- CN1[C@@H]2C[C@@H](OC(=O)[C@H](CO)c3ccccc3)C[C@H]1[C@@H]1O[C@@H]12: -9.6
- NCCc1c[nH]c2ccc(O)cc12: -3.47
- C[N+]1(C)[C@@H]2C[C@@H](OC(=O)[C@H](CO)c3ccccc3)C[C@H]1[C@@H]1O[C@@H]12: 0.639
- C=CC[C@]1(O)CC[C@H]2[C@@H]3CCC4=CC(=O)CCC4=C3C=C[C@@]21C: 1.88
- CCOC(=O)c1cncn1[C@H](C)c1ccccc1: 2.48
